Quick reference for PBM binding z-score among some sequences
- Tested on: FXR:RXRa (NR concentration 270 nM, RXRa partner concentration 90 nM)
- assay text: PBM binding z-score (relative to random genomic background probes); higher = stronger binding; sequences stand for … in GC…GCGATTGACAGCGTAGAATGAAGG
Give the figure only, with no unit attached.

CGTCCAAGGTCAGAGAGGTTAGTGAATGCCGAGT :: 5.32

# lookup: PBM binding z-score of `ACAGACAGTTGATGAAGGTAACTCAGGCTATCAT`
0.165

// query: `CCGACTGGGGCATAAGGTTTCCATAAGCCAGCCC`
0.03

* * *

Quick reference for PBM binding z-score among some sequences
- System: LXRb homodimer (NR concentration 270 nM)
- assay text: PBM binding z-score (relative to random genomic background probes); higher = stronger binding; sequences stand for … in GC…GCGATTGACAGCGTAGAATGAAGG
Give the figure only, with no unit attached.

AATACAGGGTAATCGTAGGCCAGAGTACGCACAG :: -0.0115
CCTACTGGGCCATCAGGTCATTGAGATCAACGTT :: -0.336
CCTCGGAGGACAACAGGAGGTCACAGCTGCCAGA :: -0.268
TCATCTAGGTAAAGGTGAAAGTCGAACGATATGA :: 0.134

# lookup: PBM binding z-score of `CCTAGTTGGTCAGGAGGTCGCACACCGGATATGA`
0.0283

// query: `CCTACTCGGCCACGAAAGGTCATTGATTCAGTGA`
0.938

// query: `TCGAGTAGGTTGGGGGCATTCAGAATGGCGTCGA`
6.82

// query: `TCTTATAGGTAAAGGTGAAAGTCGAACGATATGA`
0.488

// query: `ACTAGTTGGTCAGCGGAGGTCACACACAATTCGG`
0.932

* * *

- System: RARa:RXR (NR concentration 270 nM, RXRa partner concentration 90 nM)
- assay text: PBM binding z-score (relative to random genomic background probes); higher = stronger binding; sequences stand for … in GC…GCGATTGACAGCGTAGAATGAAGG
Quick reference for PBM binding z-score among some sequences
Give the figure only, with no unit attached.

Previously resolved entries follow.
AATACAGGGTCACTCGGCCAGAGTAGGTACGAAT :: 4.66
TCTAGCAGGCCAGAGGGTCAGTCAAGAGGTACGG :: 0.985
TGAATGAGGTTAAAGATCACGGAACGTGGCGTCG :: 4.67
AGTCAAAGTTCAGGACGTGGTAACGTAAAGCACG :: 1.86
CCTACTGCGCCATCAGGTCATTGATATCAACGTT :: 2.03

# lookup: PBM binding z-score of `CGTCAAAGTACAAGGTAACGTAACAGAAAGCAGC`
0.281

// query: `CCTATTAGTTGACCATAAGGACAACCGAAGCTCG`
1.27

// query: `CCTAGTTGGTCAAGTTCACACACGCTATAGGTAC`
2.27

* * *

- Tested on: PPARg:RXRa (NR concentration 180 nM, RXRa partner concentration 90 nM)
- assay text: PBM binding z-score (relative to random genomic background probes); higher = stronger binding; sequences stand for … in GC…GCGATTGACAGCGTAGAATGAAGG
observed property: PBM binding z-score
Give the figure only, with no unit attached.

Previously resolved entries follow.
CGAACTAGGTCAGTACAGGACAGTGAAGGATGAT :: 4.93
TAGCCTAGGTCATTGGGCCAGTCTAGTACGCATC :: 3.3
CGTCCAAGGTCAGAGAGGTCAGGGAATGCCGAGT :: 4.38
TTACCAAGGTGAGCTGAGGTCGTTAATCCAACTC :: 0.0208
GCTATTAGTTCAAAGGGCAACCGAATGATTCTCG :: 4.51

// next entry
# lookup: PBM binding z-score of `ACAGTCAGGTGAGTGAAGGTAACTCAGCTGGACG`
0.268

These data points were gathered from the supplement of paper PMC6555819.
